// Emax lookup, one value per entry
Molecular target: Kv7.2 (Homo sapiens, UniProt O43526)
Construct: expressed in transfected cells
Experiment: Activation of Kv7.2 (in vitro assay, concentration response curve)
Type: cell-based
Settings: Kv7.2 activation max %
Entry rule: numbers only, all in %.

Completed entries (count: 3):
# MOLECULE, UNIT_STRING, Emax
records = [
    ("O=C(NCc1ccnc(OC(F)F)c1)Nc1cc(F)ccc1F [Example 244]", "%", 50),
    ("O=C(NCc1ccnc(OC(F)F)c1)NC1CCOC(C(F)(F)F)C1 (stereo not shown) [Example 226]", "%", 40),
    ("CC(F)(F)c1cc(CNC(=O)N[C@H]2C[C@H](C(F)(F)F)C2)ccn1 [Example 57]", "%", 60),
]

Moving on to the next molecule.
Would you kindly share the measured Emax for O=C(NCc1ccnc(OCC(F)(F)F)c1)NCC1CC(C(F)(F)F)C1 (stereo not shown) [Example 71] ?
53
